- Test system: HCT-116
- measurement.notes: NCI tumour cell line growth inhibition, 48 h
Active and inactive are the calls of the source. No stated cut-off is given here; in the data, active = GI50 up to about 1.1 µM and inactive = higher.
reported.property: GI50

Reference set (2 entries):
Q) Given the entry CN(C)c1ccc(/C=C(\NC(=O)c2ccccc2)c2nc3ccccc3c(=O)o2)cc1 , report its measured GI50.
A) > 100 µM (inactive)

Q) Item: Cc1cccc(C(C)(C)C)c1NC(=O)CCl
A) > 100 µM (inactive)

Continuing:
Q) Field request: GI50 | item: CCc1cccc(C)c1NC(=S)NC(=O)c1ccccc1C(=O)NC(=S)Nc1c(C)cccc1CC
A) 71.4 µM (inactive)

Q) Item: N#Cc1cnn2cc[nH]c12
A) > 100 µM (inactive)

Q) Another molecule to look at: O=C(O)CN1CCN2CCCCCN(CC1)CCN(CC(=O)O)CC2
A) 73.8 µM (inactive)

Q) Record: COC(=O)C1=C(O)C(C(=O)OC)[C@@]2(O)[C@@H](C(=O)OC)[C@H](C)C[C@@H]1[C@@H]2C(=O)OC (some centres undefined)
A) 35.5 µM (inactive)

Q) Then COc1ccc(N2C(=O)C3c4[nH]c5ccc(C)cc5c4C4CCC(C(C)(C)C)CC4C3C2=O)cc1 (centres undefined) ?
A) 7.66 µM (inactive)

Q) Next molecule: CS/C(Nc1ccccc1)=C1\C(=O)N(c2ccccc2)N=C1C
A) > 100 µM (inactive)
